I'd be grateful if you could share measured Hepatotoxicity (acute) for these entries.
Details: human, serum
Numbers only.

Reference set (4 entries):
molecule | Hepatotoxicity (acute)
CNC=O | 4
Clc1ccc(C(Cn2ccnc2)OCc2ccsc2Cl)c(Cl)c1 (stereo not given) [TIOCONAZOLE] | 0
Nc1c(CC(=O)O)cccc1C(=O)c1ccc(Br)cc1 [BROMFENAC] | 7
CNC(=O)C[C@@H](N)C(=O)N[C@@H](C(=O)N[C@@H]1C(=O)N2[C@@H]1SC(C)(C)[C@@H]2C(=O)O)c1ccc(O)cc1 [ASPOXICILLIN] | 0

// Hepatotoxicity (acute) lookup, molecule = COc1ccc(CN2CCNCC2)c(OC)c1OC [TRIMETAZIDINE] , result: 1

---

I'd be grateful if you could share measured Hepatotoxicity (granulomatous hepatitis) for these entries.
Details: human
Numbers only.

Reference set (5 entries):
molecule | value.measured
Nc1ccn([C@@H]2CS[C@H](CO)O2)c(=O)n1 | 0
CO[C@H]1/C=C/O[C@@]2(C)Oc3c(C)c(O)c4c(O)c(c5c(nc6cc(C)ccn65)c4c3C2=O)NC(=O)/C(C)=C\C=C\[C@H](C)[C@H](O)[C@@H](C)[C@@H](O)[C@@H](C)[C@H](OC(C)=O)[C@@H]1C | 0
CC(C)NNC(=O)c1ccncc1 | 0
C[C@]1(O)CC[C@H]2[C@@H]3CCC4=CC(=O)CC[C@@H]4[C@H]3CC[C@@]21C | 0
FC(F)OC(Cl)C(F)(F)F (stereo unspecified) | 0

Here's the next entry for you.
// Hepatotoxicity (granulomatous hepatitis) lookup, molecule = `C[C@H]1O[C@@H](O[C@H]2[C@@H](O)C[C@H](O[C@H]3[C@@H](O)C[C@H](O[C@H]4CC[C@@]5(C)[C@H](CC[C@@H]6[C@@H]5C[C@@H](O)[C@]5(C)[C@@H](C7=CC(=O)OC7)CC[C@]65O)C4)O[C@@H]3C)O[C@@H]2C)C[C@H](O)[C@@H]1O` , result: 0

---

Conditions: human
Where a SMILES comes first, the peptide text is derived from it. Bridges are numbered along the chain shown (N, C = ends). [ ]: non-standard residue; d: D form.
reported.endpoint: Hepatotoxicity (cytolytic)
Answers are plain numbers.

Reference set (7 entries):
molecule | Hepatotoxicity (cytolytic)
CC(C)[C@@H]1NC(=O)[C@H](CCCCN)NC(=O)[C@@H](Cc2c[nH]c3ccccc23)NC(=O)[C@H](Cc2ccc(O)cc2)NC(=O)[C@@H](NC(=O)[C@H](N)Cc2ccccc2)CSSC[C@@H](C(=O)N[C@@H](Cc2c[nH]c3ccccc23)C(N)=O)NC1=O [VAPREOTIDE] (H-[dF]CY[dW]KVCW-NH2; disulfide 2-7) | 0
NS(=O)(=O)c1cc2c(cc1C(F)(F)F)NC(Cc1ccccc1)NS2(=O)=O (stereo not drawn) [BENDROFLUMETHIAZIDE] | 0
CC(C)(O)c1ccccc1CC[C@@H](SCC1(CC(=O)O)CC1)c1cccc(/C=C/c2ccc3ccc(Cl)cc3n2)c1 [MONTELUKAST] | 2
CSc1nc2cc(Cl)c(Oc3cccc(Cl)c3Cl)cc2[nH]1 [TRICLABENDAZOLE] | 0
C[C@]12CCC(=O)C=C1CC[C@@H]1[C@@H]2[C@@H](O)C[C@@]2(C)[C@H]1CC[C@]2(O)C(=O)CO [HYDROCORTISONE] | 0
CCC1=C(C[C@H]2NCCc3cc(OC)c(OC)cc32)C[C@H]2c3cc(OC)c(OC)cc3CCN2C1 [DEHYDROEMETINE] | 0
CCOC(=O)c1cncn1[C@H](C)c1ccccc1 [ETOMIDATE] | 0

Here's the next entry for you.
// Hepatotoxicity (cytolytic) lookup, molecule = CS(=O)(=O)c1ccc(C2=C(c3ccccc3)C(=O)OC2)cc1 [ROFECOXIB] , result: 1

---

Details: human
reported.endpoint: Hepatotoxicity (severe hepatitis)
Give bare numbers.

compound | Hepatotoxicity (severe hepatitis)
CC=CC1=C(C(=O)O)N2C(=O)[C@@H](NC(=O)[C@H](N)c3ccc(O)cc3)[C@H]2SC1 | 0
O=C(O)c1ccccc1C(=O)Nc1ccc(S(=O)(=O)Nc2nccs2)cc1 | 0
CCOC(=O)c1c(N)sc2c1CCN(Cc1ccccc1)C2 | 0
CCN(CCO)CCCC(C)Nc1ccnc2cc(Cl)ccc12 (centres undefined) [HYDROXYCHLOROQUINE] | 1
C[C@H](CSC(=O)c1ccccc1)C(=O)N1C[C@@H](Sc2ccccc2)C[C@H]1C(=O)O | 0

# batch: return Hepatotoxicity (severe hepatitis) for each of the 4 compounds below
1. COc1cc(C(=S)N2CCOCC2)cc(OC)c1OC
2. COc1ccc(NS(=O)(=O)c2ccc(N)cc2)nn1
3. NC(=O)c1cnccn1 [PYRAZINAMIDE]
4. NC1=NC(=O)C(c2ccccc2)O1 (centres undefined)

1. 0
2. 0
3. 19
4. 10

---

Settings: human
reported.endpoint: Hepatotoxicity (cytolytic)
Answers are plain numbers.

# batch: return Hepatotoxicity (cytolytic) for each of the 5 compounds below
1. COc1cc(/C=C/C(=O)O)ccc1O [FERULATE]
2. CC(C(=O)O)c1ccc(CC2CCCC2=O)cc1 (stereo not given) [LOXOPROFEN]
3. Cc1oncc1C(=O)Nc1ccc(C(F)(F)F)cc1 [LEFLUNOMIDE]
4. O=C(O)c1cc(=O)c2c(OCC(O)COc3cccc4oc(C(=O)O)cc(=O)c34)cccc2o1 [CROMOLYN]
5. Cc1cc(CC(=O)O)n(C)c1C(=O)c1ccc(Cl)cc1 [ZOMEPIRAC]

1
0
5
0
0

---

I'd be grateful if you could share measured Hepatotoxicity (cytolytic) for these entries.
Details: human
Answers are plain numbers.

Reference set (5 entries):
compound | value.measured
C=C[C@H]1C[N@@]2CC[C@H]1C[C@@H]2[C@@H](O)c1ccnc2ccc(OC)cc12 | 12
CCNC(=O)[C@@H]1CCCN1C(=O)[C@H](CCCNC(=N)N)NC(=O)[C@H](CC(C)C)NC(=O)[C@@H](CC(C)C)NC(=O)[C@H](Cc1ccc(O)cc1)NC(=O)[C@H](CO)NC(=O)[C@H](Cc1c[nH]c2ccccc12)NC(=O)[C@H](Cc1c[nH]cn1)NC(=O)[C@@H]1CCC(=O)N1 [LEUPROLIDE] | 0
O=C(OC[C@H]1O[C@@H](OC(=O)c2cc(O)c(O)c(OC(=O)c3cc(O)c(O)c(O)c3)c2)[C@H](OC(=O)c2cc(O)c(O)c(OC(=O)c3cc(O)c(O)c(O)c3)c2)[C@@H](OC(=O)c2cc(O)c(O)c(OC(=O)c3cc(O)c(O)c(O)c3)c2)[C@@H]1OC(=O)c1cc(O)c(O)c(OC(=O)c2cc(O)c(O)c(O)c2)c1)c1cc(O)c(O)c(OC(=O)c2cc(O)c(O)c(O)c2)c1 | 13
CC(C)NCC(O)c1ccc(NS(C)(=O)=O)cc1 (stereo unspecified) | 1
CCCSc1ccc2nc(NC(=O)OC)[nH]c2c1 | 3

Here's the next entry for you.
// Hepatotoxicity (cytolytic) lookup, compound = CCOC(=O)C(C)(C)Oc1ccc(Cl)cc1 [CLOFIBRATE] , result: 2

---

I'd be grateful if you could share measured Hepatotoxicity (moderate) for these entries.
Experiment: Highest frequency of moderate liver toxicity observed during clinical trials, expressed as a percentage. [column '% BIOL' in source]
Details: human
One number for each entry, in %.

Reference set (2 entries):
molecule | result.units | Hepatotoxicity (moderate)
O=NN(CCCl)C(=O)NCCCl | % | 26
C[C@H]1COc2c(C3(N)CC3)c(F)cc3c(=O)c(C(=O)O)cn1c23 | % | 11.1

# batch: return Hepatotoxicity (moderate) for each of the 5 molecules below
1. COc1ccc2c(c1)c(CC(=O)OCC(=O)O)c(C)n2C(=O)c1ccc(Cl)cc1
2. [Se]
3. CNCCON=c1c2ccccc2ccc2ccccc12
4. CC(C)C[C@H]1C(=O)N2CCC[C@H]2[C@]2(O)O[C@](NC(=O)[C@@H]3C=C4c5cccc6[nH]c(Br)c(c56)C[C@H]4N(C)C3)(C(C)C)C(=O)N12
5. COC(=O)C(c1ccccc1)C1CCCCN1 (configuration not stated) [METHYLPHENIDATE]

1. 0
2. 0
3. 0
4. 22
5. 0

# batch: return Hepatotoxicity (moderate) for each of the 3 molecules below
1. c1ccc(C2(N3CCCCC3)CCCCC2)cc1
2. CCOC(=O)[C@H](CCc1ccccc1)N[C@H]1CCCN2CCC[C@@H](C(=O)O)N2C1=O
3. CC[C@@H](CO)NC(=O)[C@@H]1C=C2c3cccc4c3c(cn4C)C[C@H]2N(C)C1 [METHYSERGIDE]

49.9
1.2
0

# batch: return Hepatotoxicity (moderate) for each of the 7 molecules below
1. CC(C)COCC(CN(Cc1ccccc1)c1ccccc1)N1CCCC1 (configuration not stated)
2. CCN(CC)CCn1c(-c2ccccc2)noc1=N
3. C[C@@H]1C[C@H]2[C@@H]3CCC4=CC(=O)C=C[C@]4(C)[C@@]3(F)[C@@H](O)C[C@]2(C)[C@@]1(O)C(=O)CO
4. CN1C(=O)OC(C)(C)C1=O
5. O=C(NO)c1ccc(O)c(O)c1
6. CC(=O)Nc1ccc(OC(=O)c2ccccc2OC(C)=O)cc1 [BENORILATE]
7. CC(=O)Nc1nnc(S(N)(=O)=O)s1 [ACETAZOLAMIDE]

[2.8, 0, 24, 0, 0, 0, 0]
